Test: NCI Yeast Anticancer Drug Screen. Data for the sgs1 mgt1 strain (AID 161);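 further: 0% = growth of cultures given vehicle only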
Conditions: S. cerevisiae sgs1 mgt1 strain, at 50.0 µM, active compounds read high
Description: Growth inhibition of yeast strains with defined genetic alterations is measured as a screen for potential anti-cancer activity. Selected strains with alterations in DNA damage repair or cell cycle control were exposed to compounds and growth inhibition was measured relative to vehicle treated controls. The strain used in this assay is sgs1 mgt1
The panel holds about 79,000 compounds, 15% with a hit somewhere; the sample as a whole holds those more often.
endpoint: growth inhibition (%)
Provide only the numeric value, understood in %.

compound	measurement
CC1(C)CC[C@]2(C(=O)O)[C@H](O)C[C@]3(C)C(=CC[C@@H]4[C@@]5(C)CC[C@H](OC6OC(C(=O)O)C(O)C(O)C6O)C(C)(C)[C@@H]5CC[C@]43C)[C@@H]2C1 (some centres not stated)	94.3

QUERY: Output measured growth inhibition for this item: CCc1ccccc1OCc1ccccc1
RESULT: 14.2

QUERY: For the compound Cn1c(=O)c2nc3sc4c(n3c2n(C)c1=O)C(=O)c1ccccc1C4=O , report growth inhibition.
RESULT: 11.2

QUERY: For the compound c1ccc(C2OCC(OC3CCCCO3)CO2)cc1 (configuration not stated) , report growth inhibition.
RESULT: -24.6

QUERY: Give the value of growth inhibition reported for the following: CNCc1cccc(OC)c1OC
RESULT: -2.35

QUERY: Read off the recorded growth inhibition for O=c1ccnc2ccc3n[nH][nH]c3c12
RESULT: -7.65

QUERY: Give the value of growth inhibition reported for the following: CC1(C)OCC(C2OC3OC(C)(C)OC3C2OP(=O)(N2CC2)N2CC2)O1 (configuration not stated)
RESULT: -38.9

QUERY: Given the compound CC1SC(=S)NC1=O (configuration not stated) , write its reported growth inhibition.
RESULT: -10.8

QUERY: Identify measured growth inhibition corresponding to CCCC12C=C(OC)C(=O)C=C1OC(c1cc(OC)c(OC)c(OC)c1)C2C (configuration not stated)
RESULT: -18.8

QUERY: Give recorded growth inhibition. O=C(O)CS(=O)(=O)Cc1ccc(Cl)cc1Cl
RESULT: 24

QUERY: Answer with the recorded growth inhibition of C/C(=N/NC(N)=S)c1ccc[nH]1 only.
RESULT: -3.75

QUERY: Provide growth inhibition value for the following compound: O=CC1=CCC2c3[nH]c4ccccc4c3CCN2C1 (configuration not stated)
RESULT: 25.7

###

experiment: NCI Yeast Anticancer Drug Screen. Data for the bub3 strain (AID 167); conditions: S. cerevisiae bub3 mutant strain, at 50.0 µM
The panel holds about 79,000 compounds, 15% with a hit somewhere; the sample as a whole holds those more often. Active and inactive are the calls of the source. No stated cut-off is given here; in the data, active means growth inhibition above about 70%; inactive means the rest.
Respond with a class label; see 1.0 (active), 0.0 (inactive)

Completed entries (count: 10):
compound	label
COC(=O)c1ccc2cc1Nc1c(C#N)cnc(=S)n1-2	0.0
C=C1C(=O)OC2C[C@@]3(C)CCCC(=C)C3CC12 (some centres undefined)	0.0
CCCCN(CCCC)C(=O)C(O)C(=O)N(CCCC)CCCC	0.0
CC(=O)Nc1ccc([N+](=O)[O-])cc1[N+](=O)[O-]	0.0
O=c1c2cnc3cc(Cl)ccc3c2[nH]n1-c1ccc(Cl)cc1	0.0
NC(CSCCSCCSCC(N)C(=O)O)C(=O)O (centres undefined)	0.0
O=P(O)(O)OC1C(OP(=O)(O)O)C(OP(=O)(O)O)C(OP(=O)(O)O)C(OP(=O)(O)O)C1OP(=O)(O)O.[Zn+2] (centres undefined)	0.0
OCC1C2C=CC1CC2 (centres undefined)	0.0
CC(C)C(=O)/C=C/c1ccc(Cl)c(Cl)c1	0.0
O=C(/C=C\c1ccccc1)Nc1c(Cl)cc(Cl)cc1Cl	0.0

QUERY: Assay outcome for COC(=O)C(=O)/C(=C\N1C(=O)CC(=O)NC1=S)C(=O)c1ccc([N+](=O)[O-])cc1 : what was it?
RESULT: 0.0

QUERY: What outcome does the record of this test show for O=C(O)Cc1c(O)ccc2ccccc12 ?
RESULT: 0.0

QUERY: Outcome? c1ccc(CSc2ccc3ccccc3c2)cc1
RESULT: 0.0

QUERY: // outcome(item) with item = CCc1ccc(/C(C#N)=C/c2ccccc2Cl)cc1
RESULT: 0.0

QUERY: Recorded test call requested for C=CCc1cc(OC)c(O)c(C(=O)OCC)c1
RESULT: 0.0
